# Target Or Test System: T1, recombinant mature dimeric myostatin (human and mouse (mature sequences 100% …, UniProt O08689 268-376))
# T1 construct: also called GDF-8; mature myostatin
# T1 sequence: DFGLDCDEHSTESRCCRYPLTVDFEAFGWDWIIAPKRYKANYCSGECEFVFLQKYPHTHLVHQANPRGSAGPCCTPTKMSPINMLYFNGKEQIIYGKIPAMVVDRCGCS
# Assay Notes: ActRIIb neutralisation ELISA: inhibition of 2 nM biotinylated myostatin binding to coated ActRIIb
Observable: IC50 (nM)
I only need the number, in nM, no unit after it.

Here's what some known entries look like.
Binder: H4L5 (antibody, IgG1, V domains shown, Humanised IgG1/kappa) VH: QVQLVQSGAEVKKPGASVKVSCKASGYSFTGYFMHWVRQAPGQGLEWMGNIYPYNGVSNYNQRFKARVTMTVDKSTSTAYMELRSLRSDDTAVYYCARRYYYGTGPADWYYDVWGQGTLVTVSS VL: DIQMTQSPSSLSASVGDRVTITCKASQDINSYLSWFQQKPGKAPKTLIYRANRLVDGVPSKFSGSGSGTDYTLTISSLQPEDFATYYCLQSDEFPLTFGQGTKLEIKR
Observable: IC50
Unit Of Measurement: nM
Observed: 0.336
--
Binder: H8L6 (antibody, IgG1, V domains shown, Humanised IgG1/kappa) VH: QVQLVQSGAEVKKPGASVKVSCKASGYSFTGYFMHWVRQAPGQGLEWIGNIYPYNSVSNYNQRFKARATLTVDKSTSTAYMELRSLRSDDTAVYYCARRYYYGTGPADWYYDVWGQGTLVTVSS VL: DIQMTQSPSSLSASVGDRVTITCKASQDINSYLSWFQQKPGKAPKTLIYRANRLVDGVPSKFSGSGSGQDYTLTISSLQPEDFATYYCLQSDEFPLTFGQGTKLEIKR
Observable: IC50
Unit Of Measurement: nM
Observed: 0.101

Let us move to another entry and its IC50.
Short answer for H5L6 (antibody, IgG1, V domains shown, Humanised IgG1/kappa) VH: QVQLVQSGAEVKKPGASVKVSCKASGYSFTGYFMHWVRQAPGQGLEWIGNIYPYNGVSNYNQRFKARATLTVDKSTSTAYMELRSLRSDDTAVYYCARRYYYGTGPADWYYDVWGQGTLVTVSS VL: DIQMTQSPSSLSASVGDRVTITCKASQDINSYLSWFQQKPGKAPKTLIYRANRLVDGVPSKFSGSGSGQDYTLTISSLQPEDFATYYCLQSDEFPLTFGQGTKLEIKR : IC50 was 0.166
